Reference source: PubChem BioAssay (NCI)

test: NCI Yeast Anticancer Drug Screen. Data for the cln2 rad14 strain (AID 165);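 note: 0% = growth equal to vehicle treated cultures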; conditions: S. cerevisiae cln2 rad14 strain, at 5.0 µM (retest, dose inferred, filed as 0.5), active compounds read high
This is part of a sample that, as a whole, favours compounds with a hit. Of some 79,000 tested, about 15% had one in any assay.
Readout type: growth inhibition (%)
Kindly provide the numeric value in % only, without the unit symbol.

Worked examples, 3 molecules total:
CC(=O)c1csc2c1C(=O)c1scc(C(C)=O)c1C2=O | 14
CCOC(=O)CNC(=O)Sc1ccc(C(C)(C)C)cc1C | 19
CCN(CC)CCNc1c(C)ccc2cccnc12 | -1

Recorded growth inhibition for C[C@]12CC[C@H](O)C[C@@H]1CC[C@@H]1[C@@H]2C(=O)C[C@]2(C)C3=CC(=O)O[C@H]3C[C@@H]12 , please?
-3

What does the data say about its growth inhibition? Entry: Cc1ccccc1N1CCN(c2c3c(nc4ccccc24)CCCCC3)CC1
-3

Query (molecule): CSc1cc(C(=O)O)nc(N)n1 ; field requested: growth inhibition
8
